Source: patent US7772188B2

Experiment: Absorbability/bioavailability study in mice, serum detection by competitive ELISA
Assay type: in vivo, CD1 mice
Conditions: CD1, mouse, serum, oral versus IV, FIG. 10a
Positions of bridges follow the written chain, without caps; N, C: chain ends. Residues, ends and D or L forms follow the SMILES beside them.
PROPERTY: bioavailability

// field: bioavailability; key: C[C@@H]1NC(=O)[C@@H]2CCCN2C(=O)[C@H](CC(N)=O)NC(=O)[C@@H]2CSSC[C@H](N)C(=O)N[C@H]3CSSC[C@H](NC1=O)C(=O)N[C@@H]([C@@H](C)O)C(=O)NCC(=O)N[C@H](C(=O)N[C@@H](Cc1ccc(O)cc1)C(=O)O)CSSC[C@H](NC(=O)[C@H](Cc1ccc(O)cc1)NC(=O)[C@H](CCC(=O)O)NC3=O)C(=O)N2 [SEQ ID NO:3] (H-CCEYCCNPACTGCY-OH; disulfide 1-6, 2-10, 5-13; N-terminus and C-terminus assumed) ; value = < 2.2%
